- test target: T1, human GIP receptor (human) (UniProt P48546)
- T1 sequence (looked up): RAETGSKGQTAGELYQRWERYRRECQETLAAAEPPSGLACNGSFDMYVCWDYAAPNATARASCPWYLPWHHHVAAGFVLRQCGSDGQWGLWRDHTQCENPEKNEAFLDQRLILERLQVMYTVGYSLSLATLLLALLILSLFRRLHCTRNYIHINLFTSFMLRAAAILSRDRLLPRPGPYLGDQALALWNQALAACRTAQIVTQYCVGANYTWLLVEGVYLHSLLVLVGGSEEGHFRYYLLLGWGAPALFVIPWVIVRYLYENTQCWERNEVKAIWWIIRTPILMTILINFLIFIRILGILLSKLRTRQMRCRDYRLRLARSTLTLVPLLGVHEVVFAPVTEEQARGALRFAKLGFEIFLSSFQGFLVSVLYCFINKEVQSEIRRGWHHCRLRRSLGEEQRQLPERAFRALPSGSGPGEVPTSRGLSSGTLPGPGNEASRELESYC
- method summary: cell-based or functional assay
assay readout: cAMP Rel EC50, nM (in the presence of 1% HSA) (nM)
Express it in nM; write the number only.

binder	measured
YXQGTFTSDFSXXLDKKAQXQFIEYLLAGGPSSGAPPPEGS (synthetic construct; SITE 2: note = 2-Aminoisobutyric Acid; SITE 12: note = L-ornithine; SITE 13: note = alpha-methyl-leucine; SITE 17: note = Lysine is chemically modified through conjugation of the epsilon-amino group of the Lysine side chain with (2-[2-(2-Amino-ethoxy)-ethoxy]-acetyl)-(gamma-Glu)) [Example 96]	49.3
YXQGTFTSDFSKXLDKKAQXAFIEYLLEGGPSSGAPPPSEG (not fully specified; synthetic construct; SITE 2: note = 2-Aminoisobutyric Acid; SITE 13: note = alpha-methyl-leucine; SITE 17: note = Lysine is chemically modified through conjugation of the epsilon-amino group of the Lysine side chain with (2-[2-(2-Amino-ethoxy)-ethoxy]-acetyl)-(gamma-Glu)-CO-(CH2) 16-CO2H; SITE 20: n) [Example 48]	46.9

Moving on to the next binder.
Data request: Item under review: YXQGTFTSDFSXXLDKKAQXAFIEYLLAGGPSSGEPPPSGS (synthetic construct; SITE 2: note = 2-Aminoisobutyric Acid; SITE 12: note = L-ornithine; SITE 13: note = alpha-methyl-leucine; SITE 17: note = Lysine is chemically modified through conjugation of the epsilon-amino group of the Lysine side chain with (2-[2-(2-Amino-ethoxy)-ethoxy]-acetyl)-(gamma-Glu)) [Example 94] . Reported cAMP Rel EC50, nM (in the presence of 1% HSA)?
Data returned: 21.4
